Data provenance: patent US20100136009A1

Listed next: entries and their corresponding Mean Fluorescence Intensity (MFI).
Biological target: T1, Ovr110 (amino acids 1-282; Ovr110 Construct 1 without the 6-His tag) expressed on transiently transfected … (human, UniProt Q7Z7D3 25-282)
T1 construct: signal peptide not removed here
T1 sequence: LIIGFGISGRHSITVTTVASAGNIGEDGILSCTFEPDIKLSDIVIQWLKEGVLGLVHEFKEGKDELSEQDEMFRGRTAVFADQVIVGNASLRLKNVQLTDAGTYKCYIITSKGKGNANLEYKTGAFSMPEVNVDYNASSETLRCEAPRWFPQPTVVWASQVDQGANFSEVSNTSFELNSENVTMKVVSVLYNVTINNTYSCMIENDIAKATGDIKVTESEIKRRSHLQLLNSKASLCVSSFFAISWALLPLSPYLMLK
Assay: flow cytometry; hybridoma supernatant; Ovr110-transfected 293F cells
Just the number, please, no unit attached.

Example entries begin here.
Report Mean Fluorescence Intensity (MFI) for Ovr110.Q27 (antibody, IgG1, V domains shown, Mouse hybridoma MAb; also called Q27.4; Q27.2) VH: QVQPQQSGAELARPGASVKLSCKASGYTFTTYWMQWVKQRPGQGLEWIGAIYPGDGDTRYTQKFKGKATLTADKSSSTAYMQLSSLASEDSAVYYCAINWGYAMDYWGQGTSVTVSS VL: DIVLTQSHKIMSTSVGDRVSITCKASQDVRTAVAWYQQKPGQSPKLLIKSASYRYTGVPDRFSGSGSGTDFTFTISSVQAEDLAVYYCQQHYSNPTFGGGTKLEIKR please. 6.09

Record: Ovr110.Q11 (antibody, V domains shown, Mouse hybridoma MAb; also called Q11.12.3; Ovr110.Q11.12.3) VH: DVQLQESGPGLVKPSQSLSLTCSVTGYSITSGYFWSWIRQFPGNKLEWMGFISYDGTNSYNPSLKNRISITRDTSKNQFFLRLNSVTKEDTATYYCARKLLWLRFDYWGQGTTLTVSS VL: ENVLTQSPAIMSASPGEKVTMTCSASSSVSYMHWYQQKSSTSPKLWIYDTSKLASGVPGRFSGSGSGNSYSLTISSMEAEDVATYYCFQGSGYPFTFGSGTKLEIKR 26

Please do the same for Ovr110.Q19 (antibody, IgG1, V domains shown, Mouse hybridoma MAb; also called Q19.6; Ovr110.Q19.6) VH: DVLLQESGPGLVKASQSLSLTCSVTGYSITSGYFWNWIRQFPGNKLEWMGYISYDGGNSYNPSLKNRISITRDTSKNQFFLRMKSVTAEDTATYYCARKALWLRFDYWGQGTTLTVSS VL: EIVLTQSPAIMSVYLGEKVTMTCSASLSVSYMHWYQQKSSTSPKLWIYDTSKVASGVPGRFSGSGSGNSYSLTISSMEAEDVATYYCFQGSGYPFTFGSGTKLEIKR as well. 24.5

Record: Ovr110.Q12 (antibody, IgG1, V domains shown, Mouse hybridoma MAb; also called Q12.2; Ovr110.Q12.2) VH: QVQLQQPGAELVKPGATVKLSCKTSGYTFTSYWMHWVKQRPGQGLEWIGEIDPSDSYTNYNQKFKGKATLTVDTSSTTAYMQLSSLTSEDSAVYYCAREYGNNDAMDYWGQGTSVTVSS VL: QIVLTQSPAIMSASPGEKVTMTCSASSGISYMHWYQQKPGTTPKRWIYDASKLASGVPSRFSGSGSGTSYSLTISSMEAEDAATYYCHQRRSYPFTFGSGTKLEIKR 31.8

***
Return reported Mean Fluorescence Intensity (MFI); argument: Ovr110.Q23 (antibody, IgG1, V domains shown, Mouse hybridoma MAb; also called Q23.6) VH: QVQLQQSGAELMKPGASVKISCKATGYTFSSYWIEWVKQRPGHGLEWIGEILPGSGITKYNEKFKTKATFTADTSSNTAYMQLSSLTSEDSAVYYCARYYFGSVNFYFDCWGQGTTLTVSS VL: QAVVTQESALTTSPGETVTLTCRSSTGAVTTSNYANWVQEKPDHLFTGLIGGTDNRPPGVPARFSGSLIGDKAALTITGTQTEDEAIYFCALWYSNHWVFGGGTKLTVLG 17.9
